Biological target: CDK6/cyclin D1 (Homo sapiens (Human), UniProt Q00534)
Sequence (Q00534 whole entry): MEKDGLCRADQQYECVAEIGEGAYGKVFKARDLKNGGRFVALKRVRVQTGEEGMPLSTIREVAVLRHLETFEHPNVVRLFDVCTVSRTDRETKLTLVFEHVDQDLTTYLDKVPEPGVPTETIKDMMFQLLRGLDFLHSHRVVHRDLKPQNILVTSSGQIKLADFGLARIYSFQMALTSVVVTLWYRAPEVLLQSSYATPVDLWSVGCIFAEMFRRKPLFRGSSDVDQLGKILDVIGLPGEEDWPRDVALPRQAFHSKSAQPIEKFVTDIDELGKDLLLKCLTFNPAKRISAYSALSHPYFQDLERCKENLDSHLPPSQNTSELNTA
Sequence (P24385 whole entry partner): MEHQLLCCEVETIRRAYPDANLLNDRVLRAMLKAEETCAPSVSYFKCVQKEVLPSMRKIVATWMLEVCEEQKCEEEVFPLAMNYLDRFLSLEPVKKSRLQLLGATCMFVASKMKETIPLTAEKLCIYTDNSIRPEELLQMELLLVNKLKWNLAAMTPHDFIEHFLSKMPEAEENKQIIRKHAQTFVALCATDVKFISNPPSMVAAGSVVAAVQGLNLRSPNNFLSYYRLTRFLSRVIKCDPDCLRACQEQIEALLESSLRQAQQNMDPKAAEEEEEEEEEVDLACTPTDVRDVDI
Test: Biochemical kinase inhibitory assay, CDK6/cyclin D1
Settings: in the presence of 10 μM ATP
Procedure: Potency determination in the biochemical kinase inhibitory assay. Kinase activity assay and IC50 determination. […] The kinase reaction was initiated by the addition of 1 μg (1.5 μM) of recombinant retinoblastoma protein, 5 μM ATP and 10μ Ci γ-32P-ATP. […] The corresponding phosphorylated substrate protein bands were quantified using a densitometer (Bio-Rad). […]
Where a name gives a salt, the structure may show the parent alone.
measured.endpoint: IC50

Sample answers from the record:
molecule: c1cc(Nc2ncc3ccc4ncn(C5CC5)c4c3n2)ncc1N1CCOCC1
IC50: 0.01 to 0.05 µM
--
molecule: CC(C)n1cnc2ccc3cnc(Nc4ccc(N5CCC(O)CC5)cn4)nc3c21
IC50: 0.01 to 0.05 µM
--
molecule: Cc1nc(Nc2ncc3ccc4ncn(C(C)C)c4c3n2)ccc1N1CCNCC1
IC50: < 0.002 µM
--
molecule: Cc1nc(Nc2ncc3ccc4ncn(C(C)C)c4c3n2)ccc1N1CCOCC1
IC50: 0.002 to 0.01 µM
--
molecule: CC(C)n1cnc2ccc3cnc(Nc4ccc(N5CCNCC5)cn4)nc3c21 [Compound I-1, hydrochloride]
IC50: < 0.002 µM

Return the recorded IC50 value; entry: "COc1cc(OC2CCN(C)CC2)ccc1Nc1ncc2ccc3ncn(C(C)C)c3c2n1"
0.05 to 0.1 µM

Return the recorded IC50 value; entry: "CC(C)n1cnc2ccc3cnc(Nc4ccc(N5CCC(N(C)C)CC5)c(F)n4)nc3c21"
0.01 to 0.05 µM

Return the recorded IC50 value; entry: "Cc1cc(Nc2ncc3ccc4ncn(C5CCCC5)c4c3n2)ncc1N1CCNCC1"
0.002 to 0.01 µM

Return the recorded IC50 value; entry: CCn1cnc2ccc3cnc(Nc4ccc(N5CCOC(C)C5)cn4)nc3c21 (centres unmarked)
0.01 to 0.05 µM

Return the recorded IC50 value; entry: "CCn1cnc2ccc3cnc(Nc4ccc(N5CCNCC5)cn4)nc3c21"
0.01 to 0.05 µM

Return the recorded IC50 value; entry: "CC(C)n1cnc2c(Br)cc3cnc(Nc4ccc(N5CCOCC5)cn4)nc3c21"
0.002 to 0.01 µM

====

target: CDK4/cyclin D1 (Homo sapiens (Human)); test: Biochemical kinase inhibitory assay, CDK4/cyclin D1; details: recombinant CDK4/cyclin D1; in the presence of 10 μM ATP
Sequence (P11802 whole entry): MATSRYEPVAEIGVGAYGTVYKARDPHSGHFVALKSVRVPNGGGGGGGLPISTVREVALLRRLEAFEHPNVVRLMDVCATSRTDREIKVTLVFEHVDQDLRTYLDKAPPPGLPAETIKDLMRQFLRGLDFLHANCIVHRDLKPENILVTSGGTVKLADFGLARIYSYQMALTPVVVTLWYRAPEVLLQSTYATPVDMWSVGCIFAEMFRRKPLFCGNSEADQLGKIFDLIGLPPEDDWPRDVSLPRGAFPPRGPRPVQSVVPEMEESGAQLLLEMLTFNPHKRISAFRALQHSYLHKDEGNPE
Sequence (P24385 whole entry partner): as the sequence (P24385 whole entry partner) above
pIC50: −log10 of the molar value.
measured.endpoint: pIC50

Sample answers from the record:
molecule: COc1cc(C(=O)NC2CCN(C)CC2)ccc1Nc1ncc2ccc3ncn(C(C)C)c3c2n1
tested.on: CDK4/cyclin D1 (Homo sapiens (Human))
result: 7.00 to 7.30
--
molecule: c1cc(Nc2ncc3ccc4ncn(C5CC5)c4c3n2)ncc1N1CCNCC1
tested.on: CDK4/cyclin D1 (Homo sapiens (Human))
result: 8.00 to 8.70

Return the recorded pIC50 value; entry: "CC(C)n1cnc2ccc3cnc(Nc4ccc(N5CCN(C)CC5)cn4)nc3c21"
8.00 to 8.70

Return the recorded pIC50 value; entry: CCn1cnc2ccc3cnc(Nc4ccc(N5CCOC(C)C5)cn4)nc3c21 (centres unmarked)
7.30 to 8.00

Return the recorded pIC50 value; entry: "Cc1cc(Nc2ncc3ccc4ncn(C(C)C)c4c3n2)ncc1N1CCNCC1"
> 8.70

Return the recorded pIC50 value; entry: "Cc1cc2cnc(Nc3ccc(N4CCOCC4)cn3)nc2c2c1ncn2C(C)C"
8.00 to 8.70

Return the recorded pIC50 value; entry: "Cc1nc(Nc2ncc3cc(Br)c4ncn(C(C)C)c4c3n2)ccc1N1CCNCC1"
8.00 to 8.70

Return the recorded pIC50 value; entry: "CC(C)n1cnc2c(Br)cc3cnc(Nc4ccc(N5CCOCC5)cn4)nc3c21"
8.00 to 8.70

Return the recorded pIC50 value; entry: "CC(C)n1cnc2ccc3cnc(Nc4ccc(N5CCC(CCCO)CC5)cc4)nc3c21"
7.30 to 8.00
